Below, each entry is listed with its recorded GI50.
Tested on: SK-MEL-28
Assay: NCI tumour cell line growth inhibition, 48 h
Active and inactive are the calls of the source. Rule as the data show it: active = GI50 up to about 1.1 µM and inactive = higher.

Guide cases for GI50, answers given:
Request the reported GI50 associated with O=C(O)c1ccc(C2=Nc3cccc4cccc(c34)N2)cc1 > 100 µM (inactive)

Request the reported GI50 associated with O=C(CC(=O)n1nc(-c2ccccc2)c(/N=N/c2ccc(Cl)cc2)c1-c1ccccc1)Nc1ccc(Cl)cc1 > 100 µM (inactive)

Further cases:
Request the reported GI50 associated with N#Cc1ccc(OC(=O)c2ccc(NC(=N)N)cc2)cc1.c1ccncc1 > 100 µM (inactive)

Request the reported GI50 associated with O=C(O)CC[N+]1=CCC(c2ccccc2)(c2ccccc2)O1 > 100 µM (inactive)

Request the reported GI50 associated with CC(C)CCC/C(CBr)=C(\Cl)CCl 2.07 µM (inactive)

Request the reported GI50 associated with CCCCCCn1c(SC)nc(COC(=O)NC)c1COC(=O)NC 17.7 µM (inactive)

Request the reported GI50 associated with COC(=O)/C(C#N)=C1\NN=NN1CCCc1ccccc1 > 100 µM (inactive)

Request the reported GI50 associated with COC(=O)C1C(OC(=O)c2ccccc2)CC2CCC1N2C(N)=O (configuration not stated) > 100 µM (inactive)

Request the reported GI50 associated with Nc1nc(S)nc2snnc12 > 100 µM (inactive)

Request the reported GI50 associated with C/C(=N\N=C(/S)N(C)C)c1cccnn1 1.29 µM (inactive)

Request the reported GI50 associated with O=c1c2ccccc2nc(-c2ccccc2)n1/N=C/c1ccccc1[N+](=O)[O-] > 100 µM (inactive)

Request the reported GI50 associated with CC(C)(C)/N=C1\C(=O)C2(C)CCC1C2(C)C (configuration not stated) > 100 µM (inactive)

###

System: ACHN
Assay: NCI tumour cell line growth inhibition, 48 h
Active and inactive are the calls of the source. Rule as the data show it: active = GI50 up to about 1.1 µM and inactive = higher.
Select the correct class. Options are 1 (active), 0 (inactive) and nothing else.

Past entries and their recorded results:
Recorded test outcome, item Cc1ccc(F)cc1NC(=O)O/N=C(\Cl)C(C)C 0

Recorded test outcome, item O=C(Cc1ccccc1)C(c1ccccc1)S(=O)(=O)c1ccccc1 (stereo not drawn) 0

Further cases:
Recorded test outcome, item COC(=O)c1cc2/c(=N/O)c3ccccc3sc2o1 0

Recorded test outcome, item CC(=O)OCC(=O)O[C@@H]1[C@H]2[C@@H](OC(=O)c3ccccc3)[C@@H](C)C[C@]2(O)[C@H](OC(C)=O)[C@@]2(C)C(OC(C)=O)[C@]1(OC(C)=O)C[C@H]1C(=O)C(C)(C)C[C@@H]12 (stereo partly drawn) 0

Recorded test outcome, item O=C(O)c1c(CC(Cc2ccccc2)C(=O)O)ccc2c1CCC2 (stereo not drawn) 0

###

System: ACHN
Experiment: NCI tumour cell line growth inhibition, 48 h
Calls of active or inactive are those of the source. No stated cut-off is given here; in the data, active = GI50 up to about 1.1 µM and inactive = higher.
Select the correct class. Options are True (active), False (inactive) and nothing else.

Past entries and their recorded results:
Recorded test outcome, item O=C(O)c1c2c(cc3c(=O)cc(-c4ccccc4)oc13)CCCC2 False

Recorded test outcome, item O=[N+]([O-])c1cc(CCl)ccc1CCl False

Recorded test outcome, item O=C1c2ccccc2-c2c1c(-c1cccc(Br)c1)nc1ccc3ccccc3c21 False

Recorded test outcome, item C=C1c2ccccc2N(S(=O)(=O)c2ccc(C)cc2)C12CCCCC2 False

Recorded test outcome, item Cc1cccc(C)c1NC(=O)C(=O)CC(=O)/C=C/c1ccccc1 False

Further cases:
Recorded test outcome, item C[N+](C)(CCNC(=O)c1cccc2cc3ccccc3nc12)Cc1ccc([N+](=O)[O-])s1 False

Recorded test outcome, item CCCCOC(=O)Nc1ccc(S(=O)(=O)Nc2ccccc2Cl)cc1 False

Recorded test outcome, item CCOC(=O)NN1C(=O)C(=P(c2ccccc2)(c2ccccc2)c2ccccc2)C(C(=O)OCC)=C1C False

Recorded test outcome, item COc1cc(C)c(C(=O)/C=C/c2cc(OC)c(O)c(OC)c2)cc1O False

Recorded test outcome, item O=C1CC(=O)NC(NN2C(=O)/C(=C/C(=O)c3ccco3)N=C2c2ccccc2)=N1 False

Recorded test outcome, item COc1ccc2nc(C)cc(NCCCCCCCCCNc3cc(C)nc4ccc(OC)cc34)c2c1 False

Recorded test outcome, item N#C/C(=N\c1ccccc1N(C(=O)c1ccccc1)C(=O)c1ccccc1)c1ccccc1 False

Recorded test outcome, item N#CC(C#N)=Cc1ccc(C(O)P(=O)(O)O)cc1 (stereo unspecified) False

Recorded test outcome, item CCCN(CCC)C(=S)N/N=C/c1ccccn1 True

Recorded test outcome, item FC1(F)[Se]C2C3CCC(C3)C2C1(F)F (stereo unspecified) False

Recorded test outcome, item NCCSc1nc2ccccc2s1 False

###

Below, each entry is listed with its recorded GI50.
Test system: SNB-75
Test: NCI tumour cell line growth inhibition, 48 h
Calls of active or inactive are those of the source. Rule as the data show it: active = GI50 up to about 1.1 µM and inactive = higher.

Guide cases for GI50, answers given:
Request the reported GI50 associated with O=C1CNc2cc(N3CCOCC3)ccc2N1 > 100 µM (inactive)

Request the reported GI50 associated with CCOC(=O)c1ccc2c(c1)nc1n2C(c2c(F)cccc2F)SC1 (stereo unspecified) 62.5 µM (inactive)

Further cases:
Request the reported GI50 associated with COc1ccc(-c2c(N)n(-c3cccc(C(=O)O)c3)c(=O)c3cc([N+](=O)[O-])ccc23)cc1 > 100 µM (inactive)

Request the reported GI50 associated with Cc1ccc(C2=Nc3cccc4cccc(c34)N2)cc1 > 100 µM (inactive)

Request the reported GI50 associated with Cc1ccc(-n2c(N)c(C#N)c3[nH]nc(N)c3c2=O)cc1 > 100 µM (inactive)

Request the reported GI50 associated with COc1ccc(-c2c(C#N)c(S)n(NS(=O)(=O)c3ccccc3)c(=O)c2C#N)cc1 > 100 µM (inactive)

###

Tested on: MDA-N
Experiment: NCI tumour cell line growth inhibition, 48 h
Activity calls are given as the source filed them. Rule as the data show it: active = GI50 up to about 1.1 µM and inactive = higher.
Below, each entry is listed with its recorded GI50.

Guide cases for GI50, answers given:
Request the reported GI50 associated with O=c1c2ccccc2nc(-c2ccccc2)n1/N=C/c1ccccc1[N+](=O)[O-] > 100 µM (inactive)

Request the reported GI50 associated with CS(=O)(=O)c1nc(-c2cc3c(c(S(C)(=O)=O)n2)CCCC3)cc2c1CCCCC2 > 100 µM (inactive)

Request the reported GI50 associated with Cc1cc(S(=O)(=O)NC2=NNC(C)CN2)c(S)cc1Cl (centres undefined) 39.6 µM (inactive)

Request the reported GI50 associated with C[n+]1c(-c2ccc(/C=C/C=N\NC(=O)c3ccc(C(=O)N/N=C\C=C\c4ccc(-c5cn6ccccc6[n+]5C)cc4)cc3)cc2)cn2ccccc21 > 100 µM (inactive)

Request the reported GI50 associated with CCCCOC(=O)Nc1ccc(S(=O)(=O)Nc2ccccc2Cl)cc1 17.6 µM (inactive)

Further cases:
Request the reported GI50 associated with CCCCCCC(O)C(=O)OC1C2C(CC1(C)C)C(O)C13OC1C(O)C1(CO1)[C@@]23C (some centres undefined) 45.4 µM (inactive)

Request the reported GI50 associated with O=C(CN1CCCCC1)c1ccc2c(c1)Sc1ccccc1O2 15.8 µM (inactive)

Request the reported GI50 associated with Cc1cccc(C)c1NC(=O)C(=O)CC(=O)/C=C/c1ccccc1 > 100 µM (inactive)

Request the reported GI50 associated with CC1(c2cccc(Cl)c2)CC(c2cccc(Cl)c2)=C(C#N)C(=C(C#N)C#N)N1 (centres undefined) 20.1 µM (inactive)

###

Test system: HL-60
Experiment: NCI tumour cell line growth inhibition, 48 h
Activity calls are given as the source filed them. Rule as the data show it: active = GI50 up to about 1.1 µM and inactive = higher.
Select the correct class. Options are active, inactive and nothing else.

Past entries and their recorded results:
Recorded test outcome, item C/C=C1\CC(C(=O)OCC)CCCCCCC1=O (configuration not stated) inactive

Recorded test outcome, item O=C(C[n+]1ccccc1)N/N=C(\C(=O)NC1=C(Cl)C(=O)c2ccccc2C1=O)c1c(O)c2ccc(O)cc2oc1=O inactive

Recorded test outcome, item CC(C)(C)NC(=O)CCC1C(C(=O)NC(C)(C)C)C2(Cl)C(Cl)=C(Cl)C1(Cl)C2(Cl)Cl (configuration not stated) inactive

Recorded test outcome, item CCOc1cnc(C(O)(c2ccccc2)c2ccccc2)o1 inactive

Next up:
Recorded test outcome, item Cc1cccc(C(C)C)c1NC(=O)CC1C(=O)Nc2ccccc2S1(=O)=O (configuration not stated) inactive

###

System: SN12C
Test: NCI tumour cell line growth inhibition, 48 h
Activity calls are given as the source filed them. No stated cut-off is given here; in the data, active = GI50 up to about 1.1 µM and inactive = higher.
measured-attribute: GI50

Request the reported GI50 associated with Fc1cccc(C2SCc3nc4ccccc4n32)c1F (stereo not given) 89.7 µM (inactive)

Request the reported GI50 associated with O=C(Cc1ccc([N+](=O)[O-])c([N+](=O)[O-])c1CC(=O)C(=O)Nc1cc(Cl)ccc1Cl)C(=O)Nc1cc(Cl)ccc1Cl 59.8 µM (inactive)

Request the reported GI50 associated with CSc1nc2c(nc(N)n2C2OCC(O)C(O)C2O)c(=O)n1C (stereo not given) > 100 µM (inactive)

Request the reported GI50 associated with COC(=O)C1CCC[C@H]2C(CO)=C(C)C(=O)[C@@H]12 (stereo not given in full) > 100 µM (inactive)

Further cases:
Request the reported GI50 associated with CCOC(=O)C(NC(=O)CC)(Nc1ccc(S(=O)(=O)Nc2onc(C)c2C)cc1)C(F)(F)F (stereo not given) > 100 µM (inactive)
